Test system: HeLa
Test: Cytotoxicity against human HeLa cells after 24 hrs by MTT assay
Format: functional, cell-based
The compounds listed here are annotated with their IC50.
All answers are understood in µM, so give the number only.

Example compounds with recorded IC50:
[[record]]
compound = "Cc1cc(C)c(N(C(=O)c2sc(C)nc2C)C(C(=O)NC2CCCCC2)c2ccccc2)c(C)c1 (stereo not given)"
uom = "µM"
valuemeasured = 10.9

[[record]]
compound = "Cc1ccc(N(C(=O)c2sc(C)nc2C)C(C(=O)NC2CCCCC2)c2ccncc2)cc1 (stereo not given)"
uom = "µM"
valuemeasured = 11

[[record]]
compound = "Cc1cccc(N(C(=O)c2ccncc2)C(C(=O)NC2CCCCC2)c2ccccc2)c1C (stereo not given)"
uom = "µM"
valuemeasured = 13.8


Log: HeLa, compound Cc1ccc(N(C(=O)c2sc(C)nc2C)C(C(=O)NC2CCCCC2)c2cccnc2)cc1 (stereo not given) , IC50 = 9.11

Item Cc1ccc(N(C(=O)c2c(C)noc2C)C(C(=O)NC2CCCCC2)c2ccncc2)cc1 (stereo not given) ; assay system HeLa; IC50 reported as 15.8

Observed IC50, HeLa, Cc1ccc(N(C(=O)c2ccc[nH]2)C(C(=O)NC2CCCCC2)c2ccccc2)c(C)c1 (stereo not given) : 10.9

IC50 for HeLa with input Cc1cccc(N(C(=O)c2ccc[nH]2)C(C(=O)NC2CCCCC2)c2ccccc2)c1C (stereo not given) equals 14.2

Hey, HeLa data for Cc1nc(C)c(C(=O)N(c2cccc(C)c2C)C(C(=O)NCc2ccccc2)c2ccccc2)s1 (stereo not given) : IC50 came out at 11.7

Here Cc1nc(C)c(C(=O)N(c2cccc(C)c2C)C(C(=O)NC2CCCCC2)c2cccnc2)s1 (stereo not given) was tested on HeLa, and its IC50 came to 9.58

The observed IC50 for Cc1cccc(N(C(=O)C2CCCCN2)C(C(=O)NC2CCCCC2)c2ccccc2)c1C (stereo not given) when tested with HeLa stands at 10.3
